- Protocol text: probe aCHRDL2 binding to arrayed compounds – biochemical, biotinylated probe, 635/667 nm fluorescence, primary screen (AID 1100)
- Condition info: small-molecule microarray, higher = more signal
Measured attribute: composite z-score

- Mol smiles: "O=C(O)[C@H](Cc1ccccc1)n1cc(-c2ccccc2)nn1"
  Measured attribute: "composite z-score"
  Observed: -0.367
- Mol smiles: "COCCCNC(=O)[C@]1(Cc2ccccc2)N=C(c2ccc(OCCCO)cc2)O[C@@H]1c1ccccc1CN=[N+]=[N-]"
  Measured attribute: "composite z-score"
  Observed: 1.29

Now for a further molecule.
Data point: "COc1cc(CO)cc(I)c1O[C@H]1C=C(C(=O)NCCO)C[C@@H](NC[C@@H]2CCCO2)[C@@H]1O" ; composite z-score = -0.204
